B1: Cytoplasmic polyadenylation element-binding protein 2, residues 513 to 575; numbered along this chain, Q7Z5Q1 (parent)
chain: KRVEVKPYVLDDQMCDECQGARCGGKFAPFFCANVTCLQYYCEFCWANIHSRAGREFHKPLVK

Variants of: B1
Test: abundance fitness (aPCA) (normalised: wild type 0, dead -1); higher = more abundant; growth selection in yeast, the domain comes from the species named
Conditions: Homo sapiens
Rule: condition met for abundance fitness not less than -0.3, condition not met for anything less.

// below: answered variants
KRVEVKPYTLDDQMCDECQGARCGGKFAPFFCANVTCLQYYCEFCWANIHSRAGREFHKPLVK [V9T]
condition met
KRVEVKPYVLDDQMCDECQGARCGGKFAPFFCAEVTCLQYYCEFCWANIHSRAGREFHKPLVK [N34E]
condition met
KRVEVKPYVLDDQMCDECQGARCGGKFAPFFCANVTCLCYYCEFCWANIHSRAGREFHKPLVK [Q39C]
condition met
KRVEVKPYVLDDQMCDECQGARCGGKFAPFFCANVTCLQYYCEFCWANIHSRAGREFWKPLVK [H58W]
condition not met

INPUT: Could you tell me if the measured abundance fitness of KRVEEKPYVLDDQMCDECQGARCGGKFAPFFCANVTCLQYYCEFCWANIHSRAGREFHKPLVK [V5E] reaches -0.3 or more?
OUTPUT: condition met

INPUT: Check if abundance fitness >= -0.3 (inclusive). Item: KRVEVKPYVLDDQMCDECQGARCGGKFYPFFCANVTCLQYYCEFCWANIHSRAGREFHKPLVK [A28Y]
OUTPUT: condition not met

INPUT: Has KRVEVKPYVLDDQMCDECQGARCGGKFAPFFCANVTCLQYYCEFCWVNIHSRAGREFHKPLVK [A47V] a recorded abundance fitness greater than or equal to -0.3?
OUTPUT: condition met

INPUT: Kindly determine if abundance fitness recorded for KRVEVKPYVLDDQMCDECQGARCGGKFAPFFCANVTCLQVYCEFCWANIHSRAGREFHKPLVK [Y40V] is above or exactly -0.3.
OUTPUT: condition not met

INPUT: # check: abundance fitness of KRVEVKPYVLDDQMCDECQGARCGGKFAPFFCANVTCLQYYCEFCWANIHSRAKREFHKPLVK [G54K] is greater than or equal to -0.3
OUTPUT: condition met

INPUT: Reported abundance fitness at or above -0.3? KRVEVKPYVLDDQMCDECQGARCGGKFAPFFCANVTCDQYYCEFCWANIHSRAGREFHKPLVK [L38D]
OUTPUT: condition met

INPUT: Can KRVEVKPYVLDDQMCDECQGARCGGKFAPFFCANETCLQYYCEFCWANIHSRAGREFHKPLVK [V35E] be said to have abundance fitness at or above -0.3?
OUTPUT: condition met

INPUT: Textbook exercise: given the entry KRVEVKPYVLDDQMCDECQGARCGGKFAPFFCANVTCLQYYCEFLWANIHSRAGREFHKPLVK [C45L] , state whether its abundance fitness is greater than or equal to -0.3.
OUTPUT: condition not met

INPUT: Confirm if abundance fitness reported for the variant KRVEVKPYVLDDQMCDECVGARCGGKFAPFFCANVTCLQYYCEFCWANIHSRAGREFHKPLVK [Q19V] is -0.3 or above.
OUTPUT: condition met

INPUT: Reported abundance fitness reaches at least -0.3 for KRVEVKPYVLDDQMCDECQGARCTGKFAPFFCANVTCLQYYCEFCWANIHSRAGREFHKPLVK [G24T] ?
OUTPUT: condition not met

INPUT: Quick check, abundance fitness >= -0.3? KRVEVKPYVLDDQMCDECQGARCGGKFAPFFCANVTCLQYYCEFCWANIHSRAGRERHKPLVK [F57R]
OUTPUT: condition met

INPUT: Answer whether abundance fitness of KRVEVKPYVLDDQMCDECQGARCGGKFAPFFCANVTCLQNYCEFCWANIHSRAGREFHKPLVK [Y40N] is greater than or equal to -0.3.
OUTPUT: condition met

INPUT: Does the variant KRVEVKPYVVDDQMCDECQGARCGGKFAPFFCANVTCLQYYCEFCWANIHSRAGREFHKPLVK [L10V] have recorded abundance fitness that is -0.3 or more?
OUTPUT: condition met

INPUT: Please check the record KRKEVKPYVLDDQMCDECQGARCGGKFAPFFCANVTCLQYYCEFCWANIHSRAGREFHKPLVK [V3K] and state if its abundance fitness is at or above -0.3.
OUTPUT: condition met

INPUT: Confirm if abundance fitness reported for the variant KRVEVKPYVLDDQMCDECQGARCGGKFAPFFCANVTCLQYECEFCWANIHSRAGREFHKPLVK [Y41E] is -0.3 or above.
OUTPUT: condition not met
